Molecular target: T1, human CD38 (full length, on cells) (human, UniProt P28907 1-300)
T1 construct: Endogenous on Daudi, Raji, Jurkat cells, human PBMC/T cells; full-length CD38 expressed in HEK-293T cells for alanine scanning; also called Uniprot P28907
Experiment: flow cytometry, binding to Daudi cells
RESULT_TYPE: Max MFI (MFI)
Output spec: scalar in MFI, unitless text.

[[record]]
binder = "aCD38-b-348-m3 (antibody, IgG1, V domains shown) VH: QLQLQESGPGLVKPSETLSLTCTVSGGSISSSDYYWGWIRQPPGKGLEWIGSIYYSGSTYYNPSLKSRVTISVDTSKNQFSLKLSSVTAADTAVYYCARGQYSSGWYAYPFDMWGQGTMVTVSS VL: EIVLTQSPGTLSLSPGERATLSCRASQSVRSSYLAWYQQKPGQAPRLLIYGASSRATGIPDRFSGSGSGTDFTLTISRLEPEDFAVYYCQQDANVYTFGGGTKVEIK"
units = "MFI"
quantitative_result = 2100


Exam item: Field request: Max MFI | item: aCD38-b-348-m1 (antibody, IgG1, V domains shown, also called aCD38-b-348-ml) VH: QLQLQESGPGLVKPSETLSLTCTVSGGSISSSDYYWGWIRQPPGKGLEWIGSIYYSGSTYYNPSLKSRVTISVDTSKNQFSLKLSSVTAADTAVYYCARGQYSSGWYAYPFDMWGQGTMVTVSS VL: EIVLTQSPGTLSLSPGERATLSCRASQSVRSSYLAWYQQKPGQAPRLLIYGASSRATGIPDRFSGSGSGTDFTLTISRLEPEDFAVYYCQQEANVYTFGGGTKVEIK
Marked response: 1610
